test: Ratio of plasma concentration that yields to require for inhibition of alpha1 adrenergic receptor-mediated mydriasis in phenylephrine-stimulated rat to MED for inhibition of 5-HT7 receptor mediated hypothermia in po dosed 5-CT-stimulated rat; format: organism-based
experimental.endpoint: selectivity ratio
Numbers only.

Any idea what selectivity ratio was measured for "CC(C)n1nc2c(c1-c1ccc(F)cc1)CCNCC2" ?
30

====

assay: Cmax in non-human primates at 5 mg/kg, po; assay type: ADME, organism-based; set-up: route oral, dose 5 mg/kg; conditions: in vivo
experimental.endpoint: Cmax (ng/mL)
One number for each entry, in ng/mL.

Any idea what Cmax was measured for "CC(C)n1nc2c(c1-c1ccc(F)cc1)CCNCC2" ?
300
